This listing pairs compounds with measured −log Pe.
# CONDITION_CONTEXT: PAMPA, pH 7.4
Quick one: just the number, no unit, thanks!

Answered examples (2):
[
  {
    "LINE_NOTATION": "CC[C@H]1C2=NN=C(O2)[C@H](Cc2ccccc2)NC(=O)CNC(=O)[C@H](CC(C)C)NC(=O)[C@H](CCCCNC(=O)CCC(=O)NCCOCCOCCCCCCCl)NC(=O)[C@@H]2CCCN21",
    "READING": 7.84
  },
  {
    "LINE_NOTATION": "CC[C@H]1C2=NN=C(O2)[C@H](Cc2ccccc2)NC(=O)CNC(=O)[C@H](CCCCNC(=O)CCC(=O)NCCOCCOCCCCCCCl)NC(=O)CNC(=O)[C@@H]2CCCN21",
    "READING": 7.92
  }
]

Attention now shifts to the item below.
Recorded −log Pe (compound CC[C@@H]1N[C@@H](CCCCNC(=O)CCC(=O)NCCOCCOCCCCCCCl)C(=O)NCC(=O)N[C@@H](CC(C)C)C(=O)NCC(=O)N[C@@H](Cc2ccccc2)C2=NN=C1O2 ): 7.85
